Exercise: for every item that follows, state its recorded pEC50.
Target: T1, human CEACAM5 (carcinoembryonic antigen, CEA) on cells (human, UniProt P06731 35-685)
T1 construct: endogenous on MKN45 gastric adenocarcinoma cells; full-length cDNA stably transfected in the CHO-K1 clones; also called huCEACAM5; MKN45 cells
T1 sequence: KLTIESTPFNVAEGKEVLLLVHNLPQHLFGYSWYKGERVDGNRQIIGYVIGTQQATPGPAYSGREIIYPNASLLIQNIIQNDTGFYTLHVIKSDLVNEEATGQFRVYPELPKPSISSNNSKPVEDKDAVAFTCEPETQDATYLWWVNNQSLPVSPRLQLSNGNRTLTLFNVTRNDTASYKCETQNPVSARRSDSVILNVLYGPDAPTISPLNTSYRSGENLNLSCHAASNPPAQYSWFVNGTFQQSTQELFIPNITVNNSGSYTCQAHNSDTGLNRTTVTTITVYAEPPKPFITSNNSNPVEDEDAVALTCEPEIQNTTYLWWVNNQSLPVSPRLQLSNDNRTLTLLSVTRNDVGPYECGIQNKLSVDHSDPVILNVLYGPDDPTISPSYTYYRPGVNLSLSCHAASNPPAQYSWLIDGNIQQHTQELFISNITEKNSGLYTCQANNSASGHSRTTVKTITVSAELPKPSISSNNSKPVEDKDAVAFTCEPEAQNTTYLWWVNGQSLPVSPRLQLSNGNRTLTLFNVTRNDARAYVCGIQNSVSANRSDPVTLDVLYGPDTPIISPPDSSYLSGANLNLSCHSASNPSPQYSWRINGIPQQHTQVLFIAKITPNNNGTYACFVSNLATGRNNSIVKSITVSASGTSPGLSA
Experiment: flow cytometry, MKN45 cells
Answers are plain numbers, as −log10 of the molar value.

Below, each entry is followed by its recorded pEC50 result.
Please give the documented pEC50 of P1AE3093 (antibody, IgG1, V domains shown, huIgG1 P329G LALA; also called MFE-H26 / MFE-L29) VH: QVQLVQSGAEVKKPGASVKVSCKASGFNIKDSYMHWVRQAPGQGLEWMGWIDPENGGTNYAQKFQGRVTMTTDTSISTAYMELSRLRSDDTAVYYCNEGTPTGPYYFDYWGQGTLVTVSS VL: EIQMTQSPSSLSASVGDRVTITCRASSSVPYMHWLQQKPGKAPKLLIYSTSSLQSGVPSRFSGSGSGTDFTLTISSVQPEDFATYYCQQRSSYPLTFGGGTKLEIK 7.79

Specify pEC50 for P1AE3099 (antibody, IgG1, V domains shown, huIgG1 P329G LALA; also called MFE-H26 / MFE-L28) VH: QVQLVQSGAEVKKPGASVKVSCKASGFNIKDSYMHWVRQAPGQGLEWMGWIDPENGGTNYAQKFQGRVTMTTDTSISTAYMELSRLRSDDTAVYYCNEGTPTGPYYFDYWGQGTLVTVSS VL: EIQMTQSPSSLSASVGDRVTITCRASSSVPYMHWLQQKPGKAPKLLIYSTSNLASGVPSRFSGSGSGTDFTLTISSVQPEDFATYYCQQRSSYPLTFGGGTKLEIK and stop. 7.99

Identify the reported pEC50 for the following entry. P1AE3094 (antibody, IgG1, V domains shown, huIgG1 P329G LALA; also called MFE-H25 / MFE-L29) VH: QVQLVQSGAEVKKPGASVKVSCKASGYTFKDSYMHWVRQAPGQGLEWMGWIDPENGDTEYAPKFQGRVTMTTDTSISTAYMELSRLRSDDTAVYYCNEGTPTGPYYFDYWGQGTLVTVSS VL: EIQMTQSPSSLSASVGDRVTITCRASSSVPYMHWLQQKPGKAPKLLIYSTSSLQSGVPSRFSGSGSGTDFTLTISSVQPEDFATYYCQQRSSYPLTFGGGTKLEIK 7.32

// Input: P1AE3105 (antibody, IgG1, V domains shown, huIgG1 P329G LALA; also called MFE-H26 / MFE-L27; huMFE23-L27-H26) VH: QVQLVQSGAEVKKPGASVKVSCKASGFNIKDSYMHWVRQAPGQGLEWMGWIDPENGGTNYAQKFQGRVTMTTDTSISTAYMELSRLRSDDTAVYYCNEGTPTGPYYFDYWGQGTLVTVSS VL: EIQMTQSPSSLSASVGDRVTITCRASSSVPYMHWYQQKPGKAPKLLIYSTSNLASGVPSRFSGSGSGTDFTLTISSVQPEDFATYYCQQRSSYPLTFGGGTKLEIK . Output its pEC50 only. 8.10

Please look at this binder and report its pEC50: P1AE0096-001 MFE23 huIgG1 PG LALA (parental) (antibody, V domains shown, murine variable domains on huIgG1 P329G L234A L235A; also called parental murine MFE23 huIgG1 P329G LALA antibody) VH: QVKLQQSGAELVRSGTSVKLSCTASGFNIKDSYMHWLRQGPEQGLEWIGWIDPENGDTEYAPKFQGKATFTTDTSSNTAYLQLSSLTSEDTAVYYCNEGTPTGPYYFDYWGQGTTVTVSS VL: ENVLTQSPAIMSASPGEKVTITCSASSSVSYMHWFQQKPGTSPKLWIYSTSNLASGVPARFSGSGSGTSYSLTISRMEAEDAATYYCQQRSSYPLTFGAGTKLELK 8.03

Check the records and state pEC50 for P1AE3097 (antibody, IgG1, V domains shown, huIgG1 P329G LALA; also called MFE-H28 / MFE-L28; huMFE23-L28-H28) VH: QVQLVQSGAEVKKPGASVKVSCKASGFNIKDSYMHWVRQAPGQGLEWMGWIDPENGDTEYAPKFQGRVTMTRDTSISTAYMELSRLRSDDTAVYYCNEGTPTGPYYFDYWGQGTLVTVSS VL: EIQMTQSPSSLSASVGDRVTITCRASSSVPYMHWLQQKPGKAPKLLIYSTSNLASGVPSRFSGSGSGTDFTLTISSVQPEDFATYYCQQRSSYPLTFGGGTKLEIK 8.19

Quick request: pEC50 for each listed item, please.
1. P1AE3114 (antibody, IgG1, V domains shown, huIgG1 P329G LALA; also called MFE-H29 / MFE-L25) VH: QVQLVQSGAEVKKPGSSVKVSCKASGFNIKDSYMHWVRQAPGQGLEWMGWIDPENGDTEYAPKFQGRVTITTDESTSTAYMELSSLRSEDTAVYYCNEGTPTGPYYFDYWGQGTLVTVSS VL: EIQMTQSPSSLSASVGDRVTITCRASSSVSYMHWYQQKPGKAPKLLIYSTSNLASGVPSRFSGSGSGTDFTLTISSLQPEDFATYYCQQRSSYPLTFGGGTKLEIK
2. P1AE3095 (antibody, IgG1, V domains shown, huIgG1 P329G LALA; also called MFE-H24 / MFE-L29) VH: QVQLVQSGAEVKKPGASVKVSCKASGFNIKDSYMHWVRQAPGQGLEWMGWIDPENGDTEYAPKFQGRVTMTTDTSISTAYMELSRLRSDDTAVYYCNEGTPTGPYYFDYWGQGTLVTVSS VL: EIQMTQSPSSLSASVGDRVTITCRASSSVPYMHWLQQKPGKAPKLLIYSTSSLQSGVPSRFSGSGSGTDFTLTISSVQPEDFATYYCQQRSSYPLTFGGGTKLEIK
3. P1AE3107 (antibody, IgG1, V domains shown, huIgG1 P329G LALA; also called MFE-H24 / MFE-L27; huMFE23-L27-H24) VH: QVQLVQSGAEVKKPGASVKVSCKASGFNIKDSYMHWVRQAPGQGLEWMGWIDPENGDTEYAPKFQGRVTMTTDTSISTAYMELSRLRSDDTAVYYCNEGTPTGPYYFDYWGQGTLVTVSS VL: EIQMTQSPSSLSASVGDRVTITCRASSSVPYMHWYQQKPGKAPKLLIYSTSNLASGVPSRFSGSGSGTDFTLTISSVQPEDFATYYCQQRSSYPLTFGGGTKLEIK

[7.51, 7.95, 8.23]

Report pEC50 for P1AE3090 (antibody, IgG1, V domains shown, huIgG1 P329G LALA; also called MFE-H29 / MFE-L29) VH: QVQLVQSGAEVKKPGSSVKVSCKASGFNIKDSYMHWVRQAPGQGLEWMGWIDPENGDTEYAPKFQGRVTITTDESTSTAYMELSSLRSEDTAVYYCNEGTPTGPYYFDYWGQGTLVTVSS VL: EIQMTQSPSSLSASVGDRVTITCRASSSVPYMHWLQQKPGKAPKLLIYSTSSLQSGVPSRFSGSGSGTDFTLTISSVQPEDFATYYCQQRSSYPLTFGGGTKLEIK 7.38
